target of assay: T1, human HVEM extracellular domain fused with an Fc fragment at the C-terminus (human, UniProt Q92956 39-202)
T1 construct: extracellular domain; Bought; also called hHVEM; not shown: Fc fragment at the C-terminus
T1 sequence (looked up): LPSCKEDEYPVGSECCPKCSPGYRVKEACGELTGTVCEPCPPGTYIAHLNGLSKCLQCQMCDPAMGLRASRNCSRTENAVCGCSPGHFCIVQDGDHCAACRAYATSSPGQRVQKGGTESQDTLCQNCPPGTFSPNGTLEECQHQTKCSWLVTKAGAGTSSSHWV
procedure details: ELISA on coated target-Fc
measured attribute: EC50 (µg/mL)

LIGHT-40 (ligand, Printed mutations: L156P, H208Y; Soluble protein carries an N-terminal His tag) DGPAGSWEQLIQERRSHEVNPAAHLTGANSSLTGSGGPLLWETQLGLAFLRGLSYHDGALVVTKAGYYYIYSKVQLGGVGCPPGLASTITHGLYKRTPRYPEELELLVSQQSPCGRATSSSRVWWDSSFLGGVVYLEAGEKVVVRVLDERLVRLRDGTRSYFGAFMV ... 0.0503
LIGHT-15 (ligand, Printed mutations: Q117E, E175K, K214E, L227T; Soluble protein carries an N-terminal His tag) DGPAGSWEQLIQERRSHEVNPAAHLTGANSSLTGSGGPLLWETELGLAFLRGLSYHDGALVVTKAGYYYIYSKVQLGGVGCPLGLASTITHGLYKRTPRYPKELELLVSQQSPCGRATSSSRVWWDSSFLGGVVHLEAGEEVVVRVLDERLVRTRDGTRSYFGAFMV ... 0.0597
LIGHT-24 (ligand, Printed mutations: S160G, A190T, L220S; Soluble protein carries an N-terminal His tag) DGPAGSWEQLIQERRSHEVNPAAHLTGANSSLTGSGGPLLWETQLGLAFLRGLSYHDGALVVTKAGYYYIYSKVQLGGVGCPLGLAGTITHGLYKRTPRYPEELELLVSQQSPCGRTTSSSRVWWDSSFLGGVVHLEAGEKVVVRVSDERLVRLRDGTRSYFGAFMV ... 0.0632
